assay: Cytotoxicity against mouse EAC cells assessed as dead cells at 25 uM after 24 hrs by trypan blue dye exclusion method relative to control; format: functional, Ehrlich
Some compounds, each annotated with its measured Activity.
The reply should be a number in %, with the unit left off.

# compound, assay.result
data = [
    ("COc1ccc(/C=C2\\CCCC3C2=NN(C2=NC(=O)/C(=C/c4ccc(OC)c(OC)c4)S2)C3c2ccc(OC)cc2)cc1 (centres undefined)", 20.4),
    ("COc1ccc(/C=C2\\CCC3C2=NN(c2nc(-c4ccc(Cl)cc4)cs2)C3c2ccc(OC)cc2)cc1 (centres undefined)", 25),
    ("N#Cc1c(N)nc2c(c1-c1ccc(O)cc1)CCC/C2=C\\c1ccc(O)cc1", 21.7),
]

Now for another entry.
In: Report Activity for CCN1C/C(=C\c2ccc(OC)cc2)C2=NN(C(N)=S)C(c3ccc(OC)cc3)C2C1 (centres undefined) please.
Out: 31.7
